pIC50 listing for selected binders.
- tested.system: T1, human ORL1 receptor (human, UniProt P41146 1-370)
- T1 construct: whole, on cells; also called hORL1 receptor; human nociceptin receptor
- T1 sequence (P41146 whole entry): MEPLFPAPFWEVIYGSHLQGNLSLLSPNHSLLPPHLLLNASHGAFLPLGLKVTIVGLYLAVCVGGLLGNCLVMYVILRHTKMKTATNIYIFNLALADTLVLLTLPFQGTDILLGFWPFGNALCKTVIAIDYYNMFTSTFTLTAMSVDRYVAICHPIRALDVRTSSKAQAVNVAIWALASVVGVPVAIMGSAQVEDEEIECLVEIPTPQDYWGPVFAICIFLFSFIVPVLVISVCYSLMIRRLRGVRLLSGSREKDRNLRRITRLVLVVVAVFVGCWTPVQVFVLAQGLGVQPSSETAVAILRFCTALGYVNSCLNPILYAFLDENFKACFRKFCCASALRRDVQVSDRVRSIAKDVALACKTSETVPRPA
- assay.notes: binding to hORL1 receptor expressed in CHO cells, one experiment
Friendly reminder that pIC50 comes from taking -log10 of the concentration in mol/L.

[[record]]
binder = "Ac-RYYRWKKKKKK-NH2 [Compound 12 Ac-Arg-Tyr-Tyr-Arg-Trp-Lys-Lys-Lys-Lys-Lys-Lys-NH2]"
observed_result = 9.82

[[record]]
binder = "Ac-RYYRIKKKKKKK-NH2 [Compound 10 Ac-Arg-Tyr-Tyr-Arg-Ile-Lys-Lys-Lys-Lys-Lys-Lys-Lys-NH2]"
observed_result = 9.29

[[record]]
binder = "Ac-KYYRWKKKKKKK-NH2 [Compound 9 Ac-Lys-Tyr-Tyr-Arg-Trp-Lys-Lys-Lys-Lys-Lys-Lys-Lys-NH2]"
observed_result = 8.43


// next item, pIC50 requested
Given Ac-KKKKKKKWRYYR-NH2 [Compound 6 Ac-Lys-Lys-Lys-Lys-Lys-Lys-Lys-Trp-Arg-Tyr-Tyr-Arg-NH2] , state its recorded pIC50.
6.94

The measured values listed here are drawn from patent US7550425B2.
